Test system: A549GR
Assay: cells
Conditions: Homo sapiens, A549, read-out: IC50 of afatinib
measured endpoint: pIC50
Scale: pIC50 equals -log10([C]), with [C] in mol/L.

Prompt: Name the recorded pIC50 for "CN(C)C/C=C/C(=O)Nc1cc2c(Nc3ccc(F)c(Cl)c3)ncnc2cc1O[C@H]1CCOC1" .
Response: 4.70
